Data provenance is patent US20240166765A1.

Listed here: items and their measured % IL8, 16 nM Ab.
- Assay system: human Tissue Factor on MDA-MB-231 cells (human, UniProt P13726 33-295)
- Experiment notes: cell-based or functional assay
Numeric only. Scale: %

[in] Form field: reported % IL8, 16 nM Ab of 43B7 (antibody, V domains shown) VH: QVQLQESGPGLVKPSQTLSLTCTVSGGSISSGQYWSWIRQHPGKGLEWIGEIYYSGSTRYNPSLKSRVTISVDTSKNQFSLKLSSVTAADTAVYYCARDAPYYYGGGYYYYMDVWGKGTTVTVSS VL: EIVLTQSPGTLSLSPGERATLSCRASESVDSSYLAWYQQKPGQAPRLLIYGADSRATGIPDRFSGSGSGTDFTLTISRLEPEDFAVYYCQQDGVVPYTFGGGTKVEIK
[out] 8

[in] Item: 39A (antibody, V domains shown, Human anti-TF IgG1) VH: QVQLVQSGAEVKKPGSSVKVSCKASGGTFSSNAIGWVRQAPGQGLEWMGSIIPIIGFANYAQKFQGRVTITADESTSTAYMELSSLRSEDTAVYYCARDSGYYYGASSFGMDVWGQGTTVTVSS VL: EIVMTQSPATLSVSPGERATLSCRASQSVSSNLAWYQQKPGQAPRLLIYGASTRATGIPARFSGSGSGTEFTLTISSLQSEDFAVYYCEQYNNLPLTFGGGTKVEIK
[out] 2

[in] Item: 25A5 (antibody, human IgG1, kappa, V domains shown) VH: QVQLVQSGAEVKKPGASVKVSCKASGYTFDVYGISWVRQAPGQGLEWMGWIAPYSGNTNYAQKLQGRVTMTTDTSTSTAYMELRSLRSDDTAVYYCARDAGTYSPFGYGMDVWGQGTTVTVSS VL: DIQMTQSPSTLSASVGDRVTITCRASESISNWLAWYQQKPGKAPKLLIYKAYSLEYGVPSRFSGSGSGTEFTLTISSLQPDDFATYYCQQFQKLPPFTFGGGTKVEIKR
[out] 7

[in] Item: 25A3 (antibody, human IgG1, kappa, V domains shown) VH: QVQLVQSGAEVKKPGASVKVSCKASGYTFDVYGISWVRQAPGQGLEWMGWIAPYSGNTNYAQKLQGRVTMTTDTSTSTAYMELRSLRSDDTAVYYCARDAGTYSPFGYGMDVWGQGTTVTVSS VL: DIQMTQSPSTLSASVGDRVTITCQASQSINNWLAWYQQKPGKAPKLLIYKAYNLESGVPSRFSGSGSGTEFTLTISSLQPDDFATYYCQLFQSLPPFTFGGGTKVEIKR
[out] 8

[in] Item: 25G1 (antibody, human IgG1, kappa, V domains shown) VH: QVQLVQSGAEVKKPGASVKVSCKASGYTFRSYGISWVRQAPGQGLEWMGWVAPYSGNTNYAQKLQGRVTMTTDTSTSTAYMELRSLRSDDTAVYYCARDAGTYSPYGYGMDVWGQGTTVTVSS VL: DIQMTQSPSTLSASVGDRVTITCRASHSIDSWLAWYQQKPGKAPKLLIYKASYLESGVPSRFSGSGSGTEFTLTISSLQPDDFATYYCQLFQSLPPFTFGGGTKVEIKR
[out] 9
